EC50 overview
Target: human Estrogen receptor alpha (ERα) (Homo sapiens, UniProt P03372)
Construct: expressed in transfected cells; host or cells: GeneBLAzer ER-α-UAS-bla GripTite 293 cells (stably integrated)
Sequence (P03372 311-547 limits assumed): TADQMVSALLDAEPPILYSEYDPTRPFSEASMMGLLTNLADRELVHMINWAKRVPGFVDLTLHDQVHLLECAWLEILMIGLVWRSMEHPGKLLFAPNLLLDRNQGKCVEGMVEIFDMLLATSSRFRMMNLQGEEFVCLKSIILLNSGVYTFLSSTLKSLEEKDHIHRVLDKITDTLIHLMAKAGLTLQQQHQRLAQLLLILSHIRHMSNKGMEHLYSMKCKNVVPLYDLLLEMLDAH
Test: GeneBLAzer Cell-Based Nuclear Receptor Assay (beta-lactamase reporter), ER-α-UAS-bla GripTite 293 cells
Settings: estrogen agonist activity; ER-α-UAS-bla GripTite 293 cells; monomers in DMSO, 7 to 250000 nM; read-out: EC50 (nM) response value to the estrogen receptor alpha
Your answer is read as nM, so omit the unit and give the number.

Oc1ccc2ccc(O)cc2c1 | 32000

Now look at this one.
Exercise: Any idea what EC50 was measured for O=S(=O)(c1ccc(O)cc1)c1ccc(O)cc1 [BPS, 4,4′-dihydroxydiphenyl sulfone, reference compound] ?
Solution: 791

FYI, the data here is from patent US20250223404A1.
